Molecular target: T1, PUF4 RNA-binding domain (Saccharomyces cerevisiae, UniProt P25339 537-888)
T1 sequence: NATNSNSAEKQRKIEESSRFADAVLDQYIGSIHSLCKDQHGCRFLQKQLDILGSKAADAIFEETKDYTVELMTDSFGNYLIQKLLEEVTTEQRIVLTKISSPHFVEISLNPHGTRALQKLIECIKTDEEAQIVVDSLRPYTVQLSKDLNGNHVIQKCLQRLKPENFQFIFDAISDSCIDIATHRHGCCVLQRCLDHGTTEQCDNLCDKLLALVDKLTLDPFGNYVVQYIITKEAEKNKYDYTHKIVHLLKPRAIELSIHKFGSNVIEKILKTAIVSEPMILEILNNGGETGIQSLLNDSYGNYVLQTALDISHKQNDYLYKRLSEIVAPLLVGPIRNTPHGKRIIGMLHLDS
Experiment: Mg; RNA-MaP; 20 mM Na-HEPES pH 7.4, 30 mM KOAc, 0.75 mM MgCl2, 0.1% Tween-20, 5% glycerol, 0.1 mg/mL BSA, 2 mM DTT; 25 C; 0.0125-409.6 nM protein
Conditions: tags: N-His6-TEV cleaved; C-SNAP kept, Cy3B-labelled; label: tethered on chip by stalled RNA polymerase
pKd: −log10 of the molar value.
Listed below: pKd values for each entry.
measure: pKd

binder	measure	comparison_symbol	reading
Ib_S2_P3E.1_K3.1_C3.1_H3.1_[T1G]_[A4C]_A3.1_F3.1_T3.1 (ssRNA) RNA: UUUGAUUAAUAUGAUAUCGUUCUUUCUGGUCUAUAUUCUUUCUCGAUAUCAUAUUAAUCUUU	pKd	<	5.64
Ic_S4_P4E.1_K4.1_C4.1_H4.1_A4.1_[T5C]_[A6T]_[T7A]_F4.1_[T8A]_[A9C]_T4.1 (ssRNA) RNA: UUUGACAACUGAUCGUUCUUUCUUGUACUAACUUCUUUCUCGAUCAGUUGUCUUU	pKd	=	6.39
Ie_S2_P3E.2_K3.1_C3.2_H3.1_[+2TCC]_A3.1_F3.1_T3.2 (ssRNA) RNA: UUUGAUUAAUAUGAUAUCGUUCUUUCUCUUGUCCUAUAUAUAUUCUUUCUCGAUAUCAUAUUAAUCUUU	pKd	=	8.01
Ic_S2_P5E.1_K5.1_C5.1_H5.1_A5.1_[T5A]_[T6C]_[A7C]_F5.1_[T9A]_[A10G]_T5.1 (ssRNA) RNA: UUUGAUUAAUAUGAUAUCGUUCUUUCUUGUAACCUAGUUCUUUCUCGAUAUCAUAUUAAUCUUU	pKd	=	7.54
UCUCUUUAUGUAUAUACCUCUCUU (ssRNA) [Id_ii_S1_P3E.2_K3.1_C3.2_[C-2T]_[T-1A]_H3.1_A3.1_F3.1_T3.2_[T9C]_[A10C]]	pKd	=	7.81
UCUCUUCUUGUUCAUAUAUAUCUCUU (ssRNA) [Ie_S1_P3E.2_K3.1_C3.2_H3.1_[+3TC]_A3.1_F3.1_T3.2]	pKd	=	7.01
UCUCUUCUUGUAUAUAUUUCUCUU (ssRNA) [Id_ii_S1_P3E.2_K3.1_C3.2_H3.1_A3.1_F3.1_T3.2_[A10T]]	pKd	=	8.29
UCUCUUCAACACUAUUAUAUCUCUU (ssRNA) [Id_ii_S1_P4E.4_K4.3_C4.2_[T-1A]_H4.3_A4.1_F4.1_T4.2_[G10T]_[T11A]]	pKd	<	5.64
Ic_S2_P4E.1_K4.1_C4.1_H4.1_A4.1_[T5C]_[A6G]_[T7C]_F4.1_[T8G]_[A9C]_T4.1 (ssRNA) RNA: UUUGAUUAAUAUGAUAUCGUUCUUUCUUGUACGCGCUUCUUUCUCGAUAUCAUAUUAAUCUUU	pKd	=	6.24
Id_ii_S2_P3E.2_K3.1_C3.2_[C-2T]_[T-1A]_H3.1_A3.1_F3.1_T3.2_[A10G] (ssRNA) RNA: UUUGAUUAAUAUGAUAUCGUUCUUUCUUAUGUAUAUAUGUUCUUUCUCGAUAUCAUAUUAAUCUUU	pKd	=	7.50
UCUCUUUUCAUAUUAUCUCUU (ssRNA) [Ib_S1_P4E.1_K4.1_C4.1_H4.1_[G2T]_[T3C]_A4.1_F4.1_T4.1]	pKd	<	5.64
Ib_S4_P4E.1_K4.1_C4.1_H4.1_[T1C]_[G2C]_A4.1_F4.1_T4.1 (ssRNA) RNA: UUUGACAACUGAUCGUUCUUUCUCCUAUAUUAUUCUUUCUCGAUCAGUUGUCUUU	pKd	=	6.48
